Tested on: Streptococcus pyogenes
Assay: In vitro antibacterial activity against Streptococcus pyogenes strain 9604
Assay type: functional
Param label: returns T when MIC < 0.2 µg/mL, returns F otherwise, including exact equality.

Some entries whose results are on file:
| compound | class-assignment |
| --- | --- |
| COC(=O)/C=C1\SC2C(NC(=O)Cc3cccs3)C(=O)N2C(C(=O)O)=C1COC(C)=O (stereo not drawn) | F |
| CC(=O)OCC1=C(C(=O)O)N2C(=O)[C@@H](NC(=O)Cc3cccs3)[C@H]2SC1 [CEPHALOTHIN] | T |
| COC(=O)/C=C1/SC2C(NC(=O)Cc3cccs3)C(=O)N2C(C(=O)O)=C1C (stereo not drawn) | F |
| CO/N=C(/C(=O)NC1C(=O)N2C(C(=O)O)=C(C)/C(=C/C(=O)OC)SC12)c1csc(N)n1.O=C(O)C(F)(F)F (stereo not drawn) | T |
| COC(=O)/C=C1\SC2C(NC(=O)Cc3cccs3)C(=O)N2C(C(=O)O)=C1C (stereo not drawn) | F |

Data request: Hi there! Is MIC for CO/N=C(/C(=O)NC1C(=O)N2C(C(=O)O)=C(C)/C(=C/C(=O)OC)SC12)c1ccco1 (stereo not drawn) below 0.2 µg/mL, do you know?
Data returned: F

Data request: Thanks! And COC(=O)/C=C1\SC2C(NC(=O)C(N)c3ccccc3)C(=O)N2C(C(=O)O)=C1C.O=C(O)C(F)(F)F (stereo not drawn) ?
Data returned: T

Data request: Proceed to COC(=O)/C=C1\SC2C(NC(=O)C(O)c3ccccc3)C(=O)N2C(C(=O)O)=C1C (stereo not drawn)
Data returned: F
